target or test system: Human KIF18A (amino acid sequence 1-417) (Homo sapiens, UniProt Q8NI77)
Construct: purchased Viva Biotech (Shanghai) Ltd
Sequence (Q8NI77 1-417): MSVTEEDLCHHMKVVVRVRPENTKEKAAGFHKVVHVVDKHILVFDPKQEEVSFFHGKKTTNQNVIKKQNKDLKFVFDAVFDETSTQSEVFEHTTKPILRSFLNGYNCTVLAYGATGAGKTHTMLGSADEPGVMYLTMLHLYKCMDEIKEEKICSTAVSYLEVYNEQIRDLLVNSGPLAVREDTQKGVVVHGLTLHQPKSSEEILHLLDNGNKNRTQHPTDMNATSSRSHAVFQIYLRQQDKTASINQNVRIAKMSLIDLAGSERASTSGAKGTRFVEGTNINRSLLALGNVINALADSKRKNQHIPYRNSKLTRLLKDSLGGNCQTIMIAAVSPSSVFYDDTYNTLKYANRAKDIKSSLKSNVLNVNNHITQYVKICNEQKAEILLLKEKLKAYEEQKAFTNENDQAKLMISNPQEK
assay remarks: Enzymatic activity test (ADP-Glo, microtubule-stimulated ATPase)
Type: biochemical
cond: 60 µg/mL microtubules, 25 µM ATP, 2.5 nM KIF18A protein, 120 min at ambient temperature, chemiluminescence; read-out: KIF18A IC50
Procedure: Materials: Human KIF18A (amino acid sequence 1-417) was purchased from Viva Biotech (Shanghai) Ltd.; the ADP-Glo™ protein kinase kit was acquired from Promega, USA; tubulin was sourced from Cytoskeleton, USA; and the 384-well assay plate and Envision multifunctional microplate reader were obtained from PerkinElmer, USA. Enzymatic Activity Test: The compound powder was dissolved in DMSO to prepare a stock solution of 10 mM. […]
pIC50: −log10 of the molar value.
pIC50 listing for selected molecules.

{"molecule": "Cc1cc2nc(n1)N1CCC(F)(F)C(CCCc3ccc(cc3)-c3cc(NS(=O)(=O)CCO)ccc3C(=O)N2)C1 (centres unmarked) [Example 44]", "relation sign": "=", "pIC50": 7.08}
{"molecule": "Cc1cc2nc(n1)N1CCC(F)(F)C(/C=C/CC3CCN(CC3)c3cc(NS(=O)(=O)CCO)c4c(c3C(=O)N2)CCNC4=O)C1 (centres unmarked) [Example 17]", "relation sign": "=", "pIC50": 7.28}
{"molecule": "Cc1cc2nc(n1)N1CCC(F)(F)C(C=CCC3CCN(CC3)c3cc(NS(=O)(=O)CCO)c4c(c3C(=O)N2)CCC4=O)C1 (single isomer, unassigned) [Example 2D]", "relation sign": "=", "pIC50": 6.26}
{"molecule": "Cc1cc2nc(n1)N1CCC(F)(F)C(CCc3csc(c3)-c3cc(NS(=O)(=O)CCO)ccc3C(=O)N2)C1 (centres unmarked) [Example 69]", "relation sign": "=", "pIC50": 7.35}
{"molecule": "Cc1cc2nc(n1)N1CCC(F)(F)C(/C=C/CC3CCN(CC3)c3cc(NS(=O)(=O)CCO)c4c(c3C(=O)N2)CCC4(F)F)C1 (centres unmarked) [Example 15]", "relation sign": "=", "pIC50": 6.45}
{"molecule": "Cc1cc2nc(n1)N1CCC(F)(F)C(CCCc3ccc(cc3)-c3cc(NS(=O)(=O)CCO)c(F)cc3C(=O)N2)C1 (centres unmarked) [Example 53]", "relation sign": "=", "pIC50": 7.31}
{"molecule": "COc1cc2nc(n1)N1CCC(F)(F)C(/C=C\\CC3=CC=C(S3)c3cc(NS(=O)(=O)CCO)ccc3C(=O)N2)C1 (centres unmarked) [Example 64]", "relation sign": "=", "pIC50": 7.01}
{"molecule": "Cc1cc2nc(n1)N1CCC(F)(F)C(/C=C\\CC3CCN(CC3)c3cc(NS(=O)(=O)CCO)c4ccccc4c3C(=O)N2)C1 (single isomer, unassigned) [Example 1B]", "relation sign": "=", "pIC50": 6.66}
{"molecule": "Cc1cc2nc(n1)N1CCC(F)(F)C(/C=C\\CC3CCN(CC3)c3cc(NS(=O)(=O)CCO)c4c(c3C(=O)N2)CCC4(C)O)C1 (centres unmarked) [Example 13]", "relation sign": "=", "pIC50": 6.53}
{"molecule": "Cc1cc2nc(n1)C1CN(/C=C/CC3CCN(CC3)c3cc(NS(=O)(=O)CCO)ccc3-c3cn-2nn3)CCC1(F)F (single isomer, unassigned) [Example 84D]", "relation sign": "=", "pIC50": 6.55}
{"molecule": "Cc1cc2nc(n1)N1CCC(F)(F)C(/C=C/CC3CCN(CC3)c3cc(NS(=O)(=O)CCO)c(C(=O)O)cc3-n3cc-2nn3)C1 (centres unmarked) [Example 91]", "relation sign": "=", "pIC50": 7.43}
{"molecule": "COc1cc2nc(n1)N1CCC(F)(F)C(/C=C\\CC3CCN(CC3)c3cc(NS(=O)(=O)CCO)c4c(c3C(=O)N2)CCC4=O)C1 (centres unmarked) [Example 5]", "relation sign": "=", "pIC50": 6.79}
{"molecule": "Cc1cc2nc(n1)N1CCC(F)(F)C(CCC3=CC=C(S3)c3cc(NS(=O)(=O)CCO)ccc3C(=O)N2)C1 (centres unmarked) [Example 63]", "relation sign": "=", "pIC50": 6.90}
{"molecule": "Cc1cc2nc(n1)N1CCC(F)(F)C(/C=C\\CC3CCN(CC3)c3cc(NS(=O)(=O)C(C)CO)c4c(c3C(=O)N2)CCC4=O)C1 (centres unmarked) [Example 11]", "relation sign": "=", "pIC50": 7.12}
{"molecule": "Cc1cc2nc(n1)N1CCC(F)(F)C(/C=C/CC3CCN(CC3)c3cc(NS(=O)(=O)CCO)c4c(c3C(=O)N2)OCC4=O)C1 (centres unmarked) [Example 14A]", "relation sign": "=", "pIC50": 7.36}
{"molecule": "Cc1cc2nc(n1)N1CCC(F)(F)C(/C=C\\c3csc(c3)-c3cc(NS(=O)(=O)CCO)ccc3C(=O)N2)C1 (centres unmarked) [Example 67]", "relation sign": "=", "pIC50": 7.07}
{"molecule": "Cc1cc2nc(n1)N1CCC(F)(F)C(C=CCc3ccc(cc3)-c3cc(NS(=O)(=O)CCO)ccc3C(=O)N2)C1 (centres unmarked) [Example 55]", "relation sign": "=", "pIC50": 7.06}
{"molecule": "Cc1cc2nc(n1)NCC(C)C=CC1=CC=C(S1)c1cc(NS(=O)(=O)CCO)ccc1C(=O)N2 (centres unmarked) [Example 70]", "relation sign": "=", "pIC50": 6.60}
{"molecule": "Cc1cc2nc(n1)N1CCC(F)(F)C(C=CCC3=CC=C(S3)c3cc(NS(=O)(=O)CCO)ccc3C(=O)N2)C1 (single isomer, unassigned) [Example 57A]", "relation sign": "=", "pIC50": 7.22}
{"molecule": "CC(=O)c1cc2c(cc1NS(=O)(=O)CCO)N1CCC(C/C=C/C3CN(CCC3(F)F)c3nc(C)cc(n3)-c3cn-2nn3)CC1 (racemic) [Example 88]", "relation sign": "<", "pIC50": 5.52}
{"molecule": "Cc1cc2nc(n1)N1CCC(F)(F)C(/C=C/CC3CCN(CC3)c3cc(NS(=O)(=O)CCO)c4ccccc4c3C(=O)N2)C1 (single isomer, unassigned) [Example 1C]", "relation sign": "=", "pIC50": 5.97}
{"molecule": "Cc1cc2nc(n1)N1CCC(F)(F)C(/C=C\\CC3CCN(CC3)c3cc(NS(=O)(=O)C(C)(C)CO)c4c(c3C(=O)N2)CCC4=O)C1 (centres unmarked) [Example 12]", "relation sign": "=", "pIC50": 6.76}
{"molecule": "Cc1cc2nc(n1)N1CCC(F)(F)C(C=CCc3csc(c3)-c3cc(NS(=O)(=O)CCO)ccc3C(=O)N2)C1 (centres unmarked) [Example 66]", "relation sign": "=", "pIC50": 7.37}
{"molecule": "COc1cc2nc(n1)N1CCC(F)(F)C(CCCc3ccc(cc3)-c3cc(NS(=O)(=O)CCO)ncc3C(=O)N2)C1 (single isomer, unassigned) [Example 56A]", "relation sign": "=", "pIC50": 7.39}
{"molecule": "Cc1cc2nc(n1)N1CCC(F)(F)C(C=CCC3CCN(CC3)c3cc(NS(=O)(=O)CCO)c4c(c3C(=O)N2)CNC4=O)C1 (centres unmarked) [Example 16]", "relation sign": "=", "pIC50": 7.35}
{"molecule": "Cc1cc2nc(n1)N1CCC(F)(F)C(C=CCC3CCN(CC3)c3cc(NS(=O)(=O)CCO)c4c(c3C(=O)N2)CCC4=O)C1 (single isomer, unassigned) [Example 2C]", "relation sign": "=", "pIC50": 7.37}
